# Tested on: 922993-354-T-J3-PDC complex spheroid viability;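 also: spheroids exposed to the agents for one week; 100% = DMSO vehicle control wells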
# experiment.summary: Anticancer human tumor 922993-354-T-J3-PDC patient-derived endometrial carcinoma cell line growth inhibition [POLQ]
# recorded.conditions: second compound 0.316 µM; first compound 0.0316 µM; hits give low values
property.label: viability, T/C (%)
Numbers only here, please. The scale is %.

[in] Enter reported viability, T/C observed with 922993-354-T-J3-PDC complex spheroid viability for COc1cccc(OCCCN)c1-c1cc(Nc2cnc(C#N)cn2)n[nH]1 + COC1C(OC(N)=O)C(O)C(Oc2ccc3c(O)c(NC(=O)c4ccc(O)c(CC=C(C)C)c4)c(=O)oc3c2C)OC1(C)C
[out] 97.2

[in] Hello, I am looking for reported viability, T/C with 922993-354-T-J3-PDC complex spheroid viability for CCc1cc2c(N3CCc4c(cc(Cn5ccnc5)cc4-c4cn(C)nc4C(F)(F)F)C3=O)cc(C)nc2c(OC)n1 + Nc1ccc(C#CCN(C(=O)Cc2ncc(C(F)(F)F)cc2C(F)(F)F)c2ccc(F)cc2)nn1 . Could you help?
[out] 103

[in] Kindly state the measured viability, T/C obtained for CNCc1ccc(-c2[nH]c3cc(F)cc4c3c2CCNC4=O)cc1 + Nc1ccc(C#CCN(C(=O)Cc2ncc(C(F)(F)F)cc2C(F)(F)F)c2ccc(F)cc2)nn1 with 922993-354-T-J3-PDC complex spheroid viability.
[out] 97.3

[in] Observed viability, T/C on 922993-354-T-J3-PDC complex spheroid viability for CC1COCCN1c1cc(C2(O)CC3CCC(C2)O3)c2cnn(-c3ccn[nH]3)c2n1 (configuration not stated) + COC1C(OC(N)=O)C(O)C(Oc2ccc3c(O)c(NC(=O)c4ccc(O)c(CC=C(C)C)c4)c(=O)oc3c2C)OC1(C)C , please.
[out] 96

[in] Hello, I am looking for reported viability, T/C with 922993-354-T-J3-PDC complex spheroid viability for CC1COCCN1c1cc(C2(O)CC3CCC(C2)O3)c2cnn(-c3ccn[nH]3)c2n1 (configuration not stated) + Nc1ccc(C#CCN(C(=O)Cc2ncc(C(F)(F)F)cc2C(F)(F)F)c2ccc(F)cc2)nn1 . Could you help?
[out] 106

[in] Reported viability, T/C for 922993-354-T-J3-PDC complex spheroid viability, given CNCc1ccc(-c2[nH]c3cc(F)cc4c3c2CCNC4=O)cc1 + Cc1cccc(N(C)C(=O)C2C(O)CCN2c2nc(C)cc(C(F)(F)F)c2C#N)c1 ?
[out] 110

[in] Form: Entry = O=C(Nc1ccc(O)c(NS(=O)(=O)c2ccc(F)cc2)c1)c1ccc(-c2ccccc2)cc1 + Cc1cccc(N(C)C(=O)C2C(O)CCN2c2nc(C)cc(C(F)(F)F)c2C#N)c1 | System = 922993-354-T-J3-PDC complex spheroid viability | viability, T/C = ____;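 also: spheroids exposed to the agents for one week; 100% = DMSO vehicle control wells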
[out] 98.8

[in] Kindly state the measured viability, T/C obtained for CC1COCCN1c1cc(C2(S(C)(=N)=O)CC2)nc(-c2ccnc3[nH]ccc23)n1 (configuration not stated) + Nc1ccc(C#CCN(C(=O)Cc2ncc(C(F)(F)F)cc2C(F)(F)F)c2ccc(F)cc2)nn1 with 922993-354-T-J3-PDC complex spheroid viability.
[out] 105

[in] Kindly state the measured viability, T/C obtained for CCc1cc2c(N3CCc4c(cc(Cn5ccnc5)cc4-c4cn(C)nc4C(F)(F)F)C3=O)cc(C)nc2c(OC)n1 + Cc1cccc(N(C)C(=O)C2C(O)CCN2c2nc(C)cc(C(F)(F)F)c2C#N)c1 with 922993-354-T-J3-PDC complex spheroid viability.
[out] 103

[in] Missing value: viability, T/C, 922993-354-T-J3-PDC complex spheroid viability, entry CC[C@@]1(O)C(=O)OCc2c1cc1n(c2=O)Cc2cc3c(CN(C)C)c(O)ccc3nc2-1 + COC1C(OC(N)=O)C(O)C(Oc2ccc3c(O)c(NC(=O)c4ccc(O)c(CC=C(C)C)c4)c(=O)oc3c2C)OC1(C)C . Fill in?
[out] 85.9

[in] Query for 922993-354-T-J3-PDC complex spheroid viability: what viability, T/C does the record show for CC1COCCN1c1cc(-c2ccnn2C)c2ccnc(-c3ccn[nH]3)c2n1 (configuration not stated) + COC1C(OC(N)=O)C(O)C(Oc2ccc3c(O)c(NC(=O)c4ccc(O)c(CC=C(C)C)c4)c(=O)oc3c2C)OC1(C)C ?
[out] 95.1

[in] // lookup viability, T/C | system=922993-354-T-J3-PDC complex spheroid viability | key= O=c1[nH]cc(F)c(=O)[nH]1 + COC1C(OC(N)=O)C(O)C(Oc2ccc3c(O)c(NC(=O)c4ccc(O)c(CC=C(C)C)c4)c(=O)oc3c2C)OC1(C)C;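 also: spheroids exposed to the agents for one week; 100% = DMSO vehicle control wells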
[out] 105
